Hello, the source for this data is ChEMBL document CHEMBL3392961, in case you need it.

TARGET DESC: cGMP-inhibited 3',5'-cyclic phosphodiesterase 3B (Homo sapiens)
Sequence (Q13370 whole entry): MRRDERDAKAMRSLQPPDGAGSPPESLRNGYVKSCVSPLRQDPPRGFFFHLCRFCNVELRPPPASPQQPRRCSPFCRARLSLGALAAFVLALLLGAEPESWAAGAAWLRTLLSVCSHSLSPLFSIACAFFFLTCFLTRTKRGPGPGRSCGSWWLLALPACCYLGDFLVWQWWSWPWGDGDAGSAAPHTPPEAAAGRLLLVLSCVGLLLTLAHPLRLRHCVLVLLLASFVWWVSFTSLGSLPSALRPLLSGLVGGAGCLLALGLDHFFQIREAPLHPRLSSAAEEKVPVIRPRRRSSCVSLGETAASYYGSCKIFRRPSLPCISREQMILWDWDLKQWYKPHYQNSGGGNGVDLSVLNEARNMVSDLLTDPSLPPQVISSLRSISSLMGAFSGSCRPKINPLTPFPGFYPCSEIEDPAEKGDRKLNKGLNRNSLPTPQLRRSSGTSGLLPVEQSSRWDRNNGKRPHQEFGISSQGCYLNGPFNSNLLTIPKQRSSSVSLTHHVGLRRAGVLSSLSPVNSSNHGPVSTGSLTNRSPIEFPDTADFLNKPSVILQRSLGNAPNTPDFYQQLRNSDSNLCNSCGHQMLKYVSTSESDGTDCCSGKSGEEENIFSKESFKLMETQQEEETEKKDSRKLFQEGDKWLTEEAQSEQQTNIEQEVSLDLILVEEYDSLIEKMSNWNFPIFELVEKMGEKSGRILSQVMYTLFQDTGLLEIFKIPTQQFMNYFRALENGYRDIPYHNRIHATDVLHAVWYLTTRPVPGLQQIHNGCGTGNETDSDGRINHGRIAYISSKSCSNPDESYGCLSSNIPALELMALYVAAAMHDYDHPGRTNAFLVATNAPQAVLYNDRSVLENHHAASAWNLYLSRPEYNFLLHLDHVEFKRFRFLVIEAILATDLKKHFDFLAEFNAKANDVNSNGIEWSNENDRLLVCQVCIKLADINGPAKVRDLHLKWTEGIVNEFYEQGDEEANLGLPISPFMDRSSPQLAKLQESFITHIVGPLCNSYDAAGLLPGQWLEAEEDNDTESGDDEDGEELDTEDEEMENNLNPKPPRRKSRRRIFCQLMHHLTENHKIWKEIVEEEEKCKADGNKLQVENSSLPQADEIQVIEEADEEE
ASSAY NAME: Inhibition of human recombinant PDE3B pre-incubated for 5 mins before [3H]cAMP substrate addition and measured 20 mins post substrate addition by scintillation proximity assay
PARAMETER: IC50

COc1cc2nncc(-c3cnc(N4CCC(O)(c5cccnc5)CC4)c(C)c3)c2cc1OC : 4.11 µM
COc1cc2nncc(-c3cnc(N4CCC(O)(c5ccc(F)nc5)CC4)c(C)c3)c2cc1OC : 6.54 µM
Cn1c(C(=O)c2ccc(Oc3ncccc3-c3cccnc3)cc2)nc2ccccc21 : 234 µM

###

TARGET DESC: cAMP and cAMP-inhibited cGMP 3',5'-cyclic phosphodiesterase 10A (Homo sapiens)
Sequence (Q9Y233 whole entry, the tested form may be a part): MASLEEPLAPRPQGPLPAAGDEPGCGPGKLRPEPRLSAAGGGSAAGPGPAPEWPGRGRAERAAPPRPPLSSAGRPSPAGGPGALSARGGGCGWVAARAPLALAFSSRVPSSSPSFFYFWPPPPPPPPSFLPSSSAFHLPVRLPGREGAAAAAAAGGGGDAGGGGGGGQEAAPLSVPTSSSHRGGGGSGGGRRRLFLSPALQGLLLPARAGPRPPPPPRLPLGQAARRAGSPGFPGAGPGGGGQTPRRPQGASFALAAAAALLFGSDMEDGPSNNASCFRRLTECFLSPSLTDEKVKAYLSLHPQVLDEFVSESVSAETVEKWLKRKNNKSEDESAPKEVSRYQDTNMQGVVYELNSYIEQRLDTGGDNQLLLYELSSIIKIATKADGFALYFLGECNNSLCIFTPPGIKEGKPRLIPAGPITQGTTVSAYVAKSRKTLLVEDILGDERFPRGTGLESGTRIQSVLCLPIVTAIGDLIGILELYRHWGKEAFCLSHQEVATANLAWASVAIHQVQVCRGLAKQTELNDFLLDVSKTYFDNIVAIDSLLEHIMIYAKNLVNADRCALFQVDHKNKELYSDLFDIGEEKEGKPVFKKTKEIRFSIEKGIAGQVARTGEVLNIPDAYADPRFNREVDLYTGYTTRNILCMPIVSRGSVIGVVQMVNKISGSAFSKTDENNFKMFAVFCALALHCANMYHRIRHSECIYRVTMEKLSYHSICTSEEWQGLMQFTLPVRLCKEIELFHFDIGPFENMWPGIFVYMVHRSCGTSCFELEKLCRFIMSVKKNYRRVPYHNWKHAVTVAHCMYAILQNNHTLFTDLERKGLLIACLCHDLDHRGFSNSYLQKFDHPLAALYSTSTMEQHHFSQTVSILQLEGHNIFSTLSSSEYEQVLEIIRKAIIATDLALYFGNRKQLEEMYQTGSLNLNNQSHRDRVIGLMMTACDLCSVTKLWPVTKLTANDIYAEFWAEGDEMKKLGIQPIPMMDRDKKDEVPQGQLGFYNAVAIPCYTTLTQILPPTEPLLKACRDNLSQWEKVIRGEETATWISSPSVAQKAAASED
ASSAY NAME: Inhibition of human recombinant PDE10A catalytic domain pre-incubated for 5 mins before [3H]cAMP substrate addition and measured 20 mins post substrate addition by scintillation proximity assay
REPORTED CONDITIONS: read-out: IC50
// reported IC50 per item
PARAMETER: IC50 (nM)

COc1cc2nncc(-c3ccc(N4CCC(O)(c5cccnc5)CC4)nc3)c2cc1OC : 14
COc1cc2c(-c3ccc(N4CCC(C)(O)CC4)nc3)cnnc2cc1O : 10800
COc1cc2c(-c3cnc(N4CCC(O)(c5ccc(F)nc5)CC4)c(C)c3)cnnc2cc1OCc1ccc2ccccc2n1 : 518
COc1cc2nncc(-c3ccc(N4CCC(C)(O)CC4)nc3)c2cc1OC : 18.4
COc1ccc(-c2cccnc2Oc2ccc(C(=O)c3nc4ccccc4n3C)cc2)cc1 : 8
COc1cc2c(-c3ccc(N4CCC(O)(c5cccnc5)CC4)nc3)cnnc2cc1OCc1ccccc1 : 1550
COc1cc2nncc(-c3cnc(N4CCC(O)(c5cccnc5)CC4)c(Cl)c3)c2cc1OC : 5.52
COc1cc2c(-c3cnc(N4CCC(O)(c5ccc(F)nc5)CC4)c(C)c3)cnnc2cc1OCCCF : 79.3
COc1cc2nncc(-c3cnc(N4CCC(O)(c5cccnc5)CC4)c(C)c3)c2cc1OC : 1.52
COc1cc2c(-c3cnc(N4CCC(O)(c5ccc(F)nc5)CC4)c(C)c3)cnnc2cc1OCc1ccccc1 : 350
Cn1c(C(=O)c2ccc(Oc3ncccc3-c3cccnc3)cc2)nc2ccccc21 : 3.73
COc1cc2nncc(-c3cnc(N4CCC(O)(c5ccc(F)nc5)CC4)c(C)c3)c2cc1OC : 2.86
COc1cc2c(-c3ccc(N4CCC(O)(c5cccnc5)CC4)nc3)cnnc2cc1O : 6620
COc1cc2nncc(-c3cnc(N4CCC(O)(c5ccc(Cl)nc5)CC4)c(C)c3)c2cc1OC : 9.8
Cn1c(C(=O)c2ccc(Oc3ncccc3-c3ccccc3)cc2)nc2ccccc21 : 18.6
COc1cc2c(-c3ccc(N4CCC(C)(O)CC4)nc3)cnnc2cc1OCc1ccccc1 : 4250

###

# pIC50 values compiled below
TARGET DESC: cGMP-inhibited 3',5'-cyclic phosphodiesterase 3A (Homo sapiens)
Sequence (Q14432 whole entry): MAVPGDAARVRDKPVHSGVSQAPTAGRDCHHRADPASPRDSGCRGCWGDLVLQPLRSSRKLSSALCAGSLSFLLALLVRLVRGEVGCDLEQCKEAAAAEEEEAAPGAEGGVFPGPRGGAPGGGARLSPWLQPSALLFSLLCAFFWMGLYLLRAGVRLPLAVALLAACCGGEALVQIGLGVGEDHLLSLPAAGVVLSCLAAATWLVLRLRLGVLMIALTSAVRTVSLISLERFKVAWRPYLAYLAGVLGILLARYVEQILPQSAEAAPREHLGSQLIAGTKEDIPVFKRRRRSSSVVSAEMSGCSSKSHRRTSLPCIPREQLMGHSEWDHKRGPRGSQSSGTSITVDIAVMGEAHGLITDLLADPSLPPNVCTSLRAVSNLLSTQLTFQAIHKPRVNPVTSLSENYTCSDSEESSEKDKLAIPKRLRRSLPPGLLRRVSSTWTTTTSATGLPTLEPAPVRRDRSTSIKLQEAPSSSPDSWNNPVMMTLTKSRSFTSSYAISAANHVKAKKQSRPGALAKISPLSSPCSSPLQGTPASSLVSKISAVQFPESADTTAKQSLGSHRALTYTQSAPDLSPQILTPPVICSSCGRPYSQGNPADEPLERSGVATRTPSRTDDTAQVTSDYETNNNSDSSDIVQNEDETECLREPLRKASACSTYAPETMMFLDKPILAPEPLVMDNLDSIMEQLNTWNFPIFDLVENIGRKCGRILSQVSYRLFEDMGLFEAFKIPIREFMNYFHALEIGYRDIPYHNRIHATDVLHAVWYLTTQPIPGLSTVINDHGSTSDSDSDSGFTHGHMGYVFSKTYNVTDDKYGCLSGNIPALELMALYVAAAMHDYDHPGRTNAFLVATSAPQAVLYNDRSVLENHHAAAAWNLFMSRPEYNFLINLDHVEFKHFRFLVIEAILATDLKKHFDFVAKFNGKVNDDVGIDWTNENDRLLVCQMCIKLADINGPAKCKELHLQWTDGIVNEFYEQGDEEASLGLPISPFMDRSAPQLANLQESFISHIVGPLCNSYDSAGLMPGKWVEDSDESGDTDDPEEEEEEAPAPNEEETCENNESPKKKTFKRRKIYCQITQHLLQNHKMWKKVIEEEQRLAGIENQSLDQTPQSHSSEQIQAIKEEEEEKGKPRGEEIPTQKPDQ
ASSAY NAME: Inhibition of human recombinant PDE3A pre-incubated for 5 mins before [3H]cAMP substrate addition and measured 20 mins post substrate addition by scintillation proximity assay
pIC50: −log10 of the molar value.
PARAMETER: pIC50

COc1cc2nncc(-c3cnc(N4CCC(O)(c5ccc(F)nc5)CC4)c(C)c3)c2cc1OC : 5.43
Cn1c(C(=O)c2ccc(Oc3ncccc3-c3cccnc3)cc2)nc2ccccc21 : 3.78
COc1cc2nncc(-c3cnc(N4CCC(O)(c5cccnc5)CC4)c(C)c3)c2cc1OC : 5.51
